Origin of values: FireProtDB (doi:10.1126/science.aai7825)

measurementSetup: Escherichia coli (strain K12); pH 7.5; Thermal; Intensity; HEPES 20mM; transition: 2; whole UniProt chain shown
quantityName: Tm
A complete answer gives the number and then names the unit.

Would you please look over these solved cases?
Transcriptional regulatory protein CusR wild type, P0ACZ8 (protein) MKLLIVEDEKKTGEYLTKGLTEAGFVVDLADNGLNGYHLAMTGDYDLIILDIMLPDVNGWDIVRMLRSANKGMPILLLTALGTIEHRVKGLELGADDYLVKPFAFAELLARVRTLLRRGAAVIIESQFQVADLMVDLVSRKVTRSGTRITLTSKEFTLLEFFLRHQGEVLPRSLIASQVWDMNFDSDTNAIDVAVKRLRGKIDNDFEPKLIQTVRGVGYMLEVPDGQ :: 43.7 °C
Phosphoribosylaminoimidazole-succinocarboxamide synthase wild type, P0A7D7 (protein) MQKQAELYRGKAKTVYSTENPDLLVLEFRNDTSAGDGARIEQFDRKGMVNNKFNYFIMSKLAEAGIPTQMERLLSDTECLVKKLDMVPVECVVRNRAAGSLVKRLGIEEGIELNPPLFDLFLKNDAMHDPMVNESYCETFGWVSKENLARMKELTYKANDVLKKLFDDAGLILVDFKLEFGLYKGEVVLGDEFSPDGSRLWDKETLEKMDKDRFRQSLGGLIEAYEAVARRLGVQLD :: 43.1 °C

Problem: I have this protein here, Ribosomal protein uL3 glutamine methyltransferase wild type, P39199 (protein) MDKIFVDEAVNELQTIQDMLRWSVSRFSAANIWYGHGTDNPWDEAVQLVLPSLYLPLDIPEDMRTARLTSSEKHRIVERVIRRVNERIPVAYLTNKAWFCGHEFYVDERVLVPRSPIGELINNKFAGLISKQPQHILDMCTGSGCIAIACAYAFPDAEVDAVDISPDALAVAEQNIEEHGLIHNVIPIRSDLFRDLPKVQYDLIVTNPPYVDAEDMSDLPNEYRHEPELGLASGTDGLKLTRRILGNAADYLADDGVLICEVGNSMVHLMEQYPDVPFTWLEFDNGGDGVFMLTKEQLIAAREHFAIYKD , and I need its recorded Tm.
Solution: 45.5 °C
